Molecular target: T1, HLA-B*44:05 (human)
T1 construct: also called peptide-receptive MHC class I molecule
Experiment: UV peptide exchange, anti-b2m ELISA
Measured Parameter: peptide exchange yield

[[record]]
binder = "SEYQDGKEF"
measured_parameter = "peptide exchange yield"
result = "20 to 50%"

[[record]]
binder = "KEMDPSRQSY"
measured_parameter = "peptide exchange yield"
result = "50 to 75%"

[[record]]
binder = "RLLPGKVVW"
measured_parameter = "peptide exchange yield"
result = "20 to 50%"

[[record]]
binder = "NEIDIHSIYF"
measured_parameter = "peptide exchange yield"
result = "> 75%"

